These data points were gathered from paper PMC9482650.

target: Q9NR12; test: holdup assay; design: key: below the threshold = too weak to quantify, mostly under pKd 3.1 to 4; details: plain residues with an end cap or a label only (N-terminal biotin on a linker: ttds)
ENDPOINT_NAME: pKd

- BINDER: "RSLEEEESQL [GRASP, Q7Z6J2]"
  pKd: "below the threshold"
- BINDER: "STLTIFETAL [ABCC4, O15439]"
  pKd: "below the threshold"
- BINDER: "PKTPPTDTSV [KIR3DL3, Q8N743]"
  pKd: "below the threshold"
- BINDER: "QSARYRDTEL [TJP2, Q9UDY2]"
  pKd: "below the threshold"

The value of pKd measured for the binder SVWLRKETRV [CYSLTR2, Q9NS75] turned out to be below the threshold
